Source listed as BigSolDB 2.1.

# Protocol conditions: in NMP, 308.15 K
Quantity measured: solubility (mole fraction)
One number for each entry.

Look up and state reported solubility (mole fraction) for Cc1cc(=O)[nH]c(=S)[nH]1
0.0334

###

# Protocol conditions: in DMF, 303.15 K
Quantity measured: solubility (mole fraction)
Numbers only.

Tell me solubility (mole fraction) reported for Cc1cc(=O)[nH]c(=S)[nH]1
0.0294

###

# Protocol conditions: in DMF, 313.15 K
Quantity measured: solubility (mole fraction)
Numbers only.

Supply reported solubility (mole fraction) belonging to this molecule: Cc1cc(=O)[nH]c(=S)[nH]1
0.0396

###

# Protocol conditions: in water, 288.15 K
Quantity measured: solubility (mole fraction)
Numbers only.

Given Cc1cc(=O)[nH]c(=S)[nH]1 , respond with its solubility (mole fraction).
4.15e-05

###

# Protocol conditions: in DMSO, 308.15 K
Quantity measured: solubility (mole fraction)

Dear colleague, please send me the reported solubility (mole fraction) for Cc1cc(=O)[nH]c(=S)[nH]1 when you can.
0.0549

###

# Protocol conditions: in DMF, 318.15 K
Quantity measured: solubility (mole fraction)
Numbers only.

Entry Cc1cc(=O)[nH]c(=S)[nH]1 needs its solubility (mole fraction) filled in; supply it.
0.0463

###

# Protocol conditions: in NMP, 293.15 K
Quantity measured: solubility (mole fraction)
Give bare numbers.

Provide solubility (mole fraction) value for the following molecule: Cc1cc(=O)[nH]c(=S)[nH]1
0.0212

###

# Protocol conditions: in NMP, 278.15 K
Quantity measured: solubility (mole fraction)
Numbers only.

Respond only with solubility (mole fraction) recorded for Cc1cc(=O)[nH]c(=S)[nH]1
0.013

###

# Protocol conditions: in water, 303.15 K
Quantity measured: solubility (mole fraction)
Answers are plain numbers.

Fill in solubility (mole fraction) for record Cc1cc(=O)[nH]c(=S)[nH]1
8.48e-05

###

# Protocol conditions: in DMSO, 293.15 K
Quantity measured: solubility (mole fraction)
Give bare numbers.

State its solubility (mole fraction): Cc1cc(=O)[nH]c(=S)[nH]1
0.0379

###

# Protocol conditions: in DMF, 288.15 K
Quantity measured: solubility (mole fraction)
Answers are plain numbers.

Annotate the molecule Cc1cc(=O)[nH]c(=S)[nH]1 with its measured solubility (mole fraction).
0.0174

###

# Protocol conditions: in water, 278.15 K
Quantity measured: solubility (mole fraction)
Answers are plain numbers.

Using the record for Cc1cc(=O)[nH]c(=S)[nH]1 , state its measured solubility (mole fraction).
2.53e-05

###

# Protocol conditions: in water, 308.15 K
Quantity measured: solubility (mole fraction)
Give bare numbers.

State its solubility (mole fraction): Cc1cc(=O)[nH]c(=S)[nH]1
0.000106
